# subject-of-test: UniProt A0A024AXB9
# assay-method-text: Functional biochemical assay to identify treatments for viral infectious disease that targets Zika NS2B-NS3 protease. Utilizing a direct enzyme activity measurement method, reading the fluorescence intensity is used to characterize the relative potency of inhibitors as IC50.
# Set-up: species or system PRVABC59
test-readout: IC50 (µM)
Give a bare numeral; the unit µM is implied.

Report IC50 on UniProt A0A024AXB9 for this entry: `Cc1ccc(S(=O)(=O)N2CCC([C@@H](NC(=O)OCc3ccccc3)C(=O)Nc3cccc(CN)c3)CC2)c(C)c1`
71.9

Report IC50 on UniProt A0A024AXB9 for this entry: `N[C@H]1CC[C@H](c2ccc(NC(=O)c3cc(Cl)cc(NC(=O)OCc4ccccc4)c3)cc2)C1`
5.01

Report IC50 on UniProt A0A024AXB9 for this entry: `O=Cc1ccc(N2CCC(C(=O)N3CCN(c4cccc(O)c4)CC3)CC2)cc1`
49.4

Report IC50 on UniProt A0A024AXB9 for this entry: `N#C[C@H](Nc1ccc2c(c1)CNC2)c1cc(Cl)cc2[nH]ncc12`
0.116

* * *

# subject-of-test: Nonstructural protein 3 (Zika virus, UniProt A0A024AXB9)
# Sequence (A0A024AXB9 whole entry): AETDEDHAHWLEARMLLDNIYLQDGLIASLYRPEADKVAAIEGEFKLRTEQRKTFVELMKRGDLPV
# assay-method-text: Functional biochemical assay to identify treatments for viral infectious disease that targets Zika NS2B-NS3 protease. Utilizing a direct enzyme activity measurement method, reading the fluorescence intensity is used to characterize the relative potency of inhibitors as IC50.
# Design: species or system PRVABC59
Assign IC50 to each entry below.
Give a bare numeral; the unit µM is implied.

Provide IC50 value for the following compound: `Cn1ncc2c(C(=O)Nc3ccc4c(c3)CNC4)cc(C3CC3)nc21`
5.07

Provide IC50 value for the following compound: `CC[C@H](Cc1nn[nH]n1)c1ccc(N[C@H](C(=O)NC)c2cc(Cl)cc(NC(=O)OCc3ccccc3)c2)cc1`
79.1

Provide IC50 value for the following compound: `NCc1cccc(NC(=O)[C@H](NS(=O)(=O)c2cccc(Cl)c2)c2ccc(OCc3ccccc3)cc2)c1`
57.2

* * *

Assign IC50 to each entry below.
# subject-of-test: Nonstructural protein 3 (Zika virus, UniProt A0A024AXB9)
# assay-method-text: Functional biochemical assay to identify treatments for viral infectious disease that targets Zika NS2B-NS3 protease. Utilizing a direct enzyme activity measurement method, reading the fluorescence intensity is used to characterize the relative potency of inhibitors as IC50.
# Parameters: species or system PRVABC59

Provide IC50 value for the following compound: `NCc1cccc(NC(=O)[C@H](NC(=O)OCc2ccccc2)c2ccc(OCCc3cscn3)cc2)c1`
79.5 µM

Provide IC50 value for the following compound: `O=C(Nc1cc(-c2cccnc2)ccn1)c1cc(C2CC2)on1`
> 25 µM

Provide IC50 value for the following compound: `O=C1CN(Cc2c[nH]c3ccccc23)CCN1c1cccnc1`
> 99.5 µM

Provide IC50 value for the following compound: `C[C@H](NC(=O)c1cc(Cl)cc2[nH]ncc12)c1ccc2c(c1)CNC2`
1.28 µM

Provide IC50 value for the following compound: `O=C(Nc1ccc2c(c1)CNC2)c1ncnc2[nH]ccc12`
> 25 µM

Provide IC50 value for the following compound: `Cc1c(C(=O)Nc2cccc(-c3ccc(O)nc3)c2)cc(C2CC2)n1C`
> 25 µM

Provide IC50 value for the following compound: `NCc1cccc(NC(=O)[C@H](NC(=O)OCc2ccccc2)c2ccc(OCC3CCC3)cc2)c1`
28.5 µM

Provide IC50 value for the following compound: `NCc1cc(S(=O)(=O)Nc2ccc(Cl)cc2C(=O)NCC(F)(F)F)ccc1Oc1ccccc1`
> 99.5 µM

Provide IC50 value for the following compound: `CCn1ccnc(N2CC(=O)[C@@H](c3c[nH]c4ccccc34)C2)c1=O`
> 99.5 µM

Provide IC50 value for the following compound: `O=C(Nc1cc(Cl)cc(C(=O)NC[C@H]2CCNC3(CC3)C2)c1)OCc1ccccc1`
> 99.5 µM

Provide IC50 value for the following compound: `CCNC(=O)Nc1cc(Cl)cc(C(=O)Nc2ccc([C@H](CC)Cc3nnn[nH]3)cc2)c1`
> 99.5 µM

Provide IC50 value for the following compound: `c1ccc(C2CCN(Cc3ccc4nccnc4c3)CC2)nc1`
> 99.5 µM

Provide IC50 value for the following compound: `CCn1ccnc(N2CCC[C@H]2C(=O)O)c1=O`
> 99.5 µM

Provide IC50 value for the following compound: `Cc1cnccc1-c1cc(NC(=O)c2cc(F)cc3[nH]ncc23)cc2c1CNC2`
0.116 µM

Provide IC50 value for the following compound: `NCc1cccc(NC(=O)[C@H]2CCc3nnc(C4CC4)n3C2)c1`
> 99.5 µM

Provide IC50 value for the following compound: `NCc1cccc(NC(=O)c2ccnc3[nH]c(C4CCOCC4)nc23)c1`
> 99.5 µM

Provide IC50 value for the following compound: `O=C(Nc1ccc2c(c1)CNC2)c1ccccc1-n1cccc1`
25.1 µM

Provide IC50 value for the following compound: `Cc1cc(C(=O)Nc2cccc(CN)c2)c2c(n1)CCCC2`
> 99.5 µM

Provide IC50 value for the following compound: `COc1ccc(S(=O)(=O)Nc2ccc(C(=O)Nc3nc4ccccc4s3)cc2)cc1`
> 99.5 µM

Provide IC50 value for the following compound: `N#Cc1ccccc1-c1ccc([C@H](NC(=O)OCc2ccccc2)C(=O)Nc2cccc(CN)c2)cc1`
12 µM

Provide IC50 value for the following compound: `O=S(=O)(CCOc1ccccc1)c1nccs1`
> 99.5 µM

Provide IC50 value for the following compound: `C#C[C@H](Nc1ccc2c(c1)CNC2)c1cccc2[nH]c(=O)[nH]c12`
7.05 µM

Values compiled from ChEMBL document CHEMBL5604062.
